# assay-target: intracellular ATR (Homo sapiens, UniProt Q13535)
# Construct: endogenous in cells
# Sequence (Q13535 whole entry): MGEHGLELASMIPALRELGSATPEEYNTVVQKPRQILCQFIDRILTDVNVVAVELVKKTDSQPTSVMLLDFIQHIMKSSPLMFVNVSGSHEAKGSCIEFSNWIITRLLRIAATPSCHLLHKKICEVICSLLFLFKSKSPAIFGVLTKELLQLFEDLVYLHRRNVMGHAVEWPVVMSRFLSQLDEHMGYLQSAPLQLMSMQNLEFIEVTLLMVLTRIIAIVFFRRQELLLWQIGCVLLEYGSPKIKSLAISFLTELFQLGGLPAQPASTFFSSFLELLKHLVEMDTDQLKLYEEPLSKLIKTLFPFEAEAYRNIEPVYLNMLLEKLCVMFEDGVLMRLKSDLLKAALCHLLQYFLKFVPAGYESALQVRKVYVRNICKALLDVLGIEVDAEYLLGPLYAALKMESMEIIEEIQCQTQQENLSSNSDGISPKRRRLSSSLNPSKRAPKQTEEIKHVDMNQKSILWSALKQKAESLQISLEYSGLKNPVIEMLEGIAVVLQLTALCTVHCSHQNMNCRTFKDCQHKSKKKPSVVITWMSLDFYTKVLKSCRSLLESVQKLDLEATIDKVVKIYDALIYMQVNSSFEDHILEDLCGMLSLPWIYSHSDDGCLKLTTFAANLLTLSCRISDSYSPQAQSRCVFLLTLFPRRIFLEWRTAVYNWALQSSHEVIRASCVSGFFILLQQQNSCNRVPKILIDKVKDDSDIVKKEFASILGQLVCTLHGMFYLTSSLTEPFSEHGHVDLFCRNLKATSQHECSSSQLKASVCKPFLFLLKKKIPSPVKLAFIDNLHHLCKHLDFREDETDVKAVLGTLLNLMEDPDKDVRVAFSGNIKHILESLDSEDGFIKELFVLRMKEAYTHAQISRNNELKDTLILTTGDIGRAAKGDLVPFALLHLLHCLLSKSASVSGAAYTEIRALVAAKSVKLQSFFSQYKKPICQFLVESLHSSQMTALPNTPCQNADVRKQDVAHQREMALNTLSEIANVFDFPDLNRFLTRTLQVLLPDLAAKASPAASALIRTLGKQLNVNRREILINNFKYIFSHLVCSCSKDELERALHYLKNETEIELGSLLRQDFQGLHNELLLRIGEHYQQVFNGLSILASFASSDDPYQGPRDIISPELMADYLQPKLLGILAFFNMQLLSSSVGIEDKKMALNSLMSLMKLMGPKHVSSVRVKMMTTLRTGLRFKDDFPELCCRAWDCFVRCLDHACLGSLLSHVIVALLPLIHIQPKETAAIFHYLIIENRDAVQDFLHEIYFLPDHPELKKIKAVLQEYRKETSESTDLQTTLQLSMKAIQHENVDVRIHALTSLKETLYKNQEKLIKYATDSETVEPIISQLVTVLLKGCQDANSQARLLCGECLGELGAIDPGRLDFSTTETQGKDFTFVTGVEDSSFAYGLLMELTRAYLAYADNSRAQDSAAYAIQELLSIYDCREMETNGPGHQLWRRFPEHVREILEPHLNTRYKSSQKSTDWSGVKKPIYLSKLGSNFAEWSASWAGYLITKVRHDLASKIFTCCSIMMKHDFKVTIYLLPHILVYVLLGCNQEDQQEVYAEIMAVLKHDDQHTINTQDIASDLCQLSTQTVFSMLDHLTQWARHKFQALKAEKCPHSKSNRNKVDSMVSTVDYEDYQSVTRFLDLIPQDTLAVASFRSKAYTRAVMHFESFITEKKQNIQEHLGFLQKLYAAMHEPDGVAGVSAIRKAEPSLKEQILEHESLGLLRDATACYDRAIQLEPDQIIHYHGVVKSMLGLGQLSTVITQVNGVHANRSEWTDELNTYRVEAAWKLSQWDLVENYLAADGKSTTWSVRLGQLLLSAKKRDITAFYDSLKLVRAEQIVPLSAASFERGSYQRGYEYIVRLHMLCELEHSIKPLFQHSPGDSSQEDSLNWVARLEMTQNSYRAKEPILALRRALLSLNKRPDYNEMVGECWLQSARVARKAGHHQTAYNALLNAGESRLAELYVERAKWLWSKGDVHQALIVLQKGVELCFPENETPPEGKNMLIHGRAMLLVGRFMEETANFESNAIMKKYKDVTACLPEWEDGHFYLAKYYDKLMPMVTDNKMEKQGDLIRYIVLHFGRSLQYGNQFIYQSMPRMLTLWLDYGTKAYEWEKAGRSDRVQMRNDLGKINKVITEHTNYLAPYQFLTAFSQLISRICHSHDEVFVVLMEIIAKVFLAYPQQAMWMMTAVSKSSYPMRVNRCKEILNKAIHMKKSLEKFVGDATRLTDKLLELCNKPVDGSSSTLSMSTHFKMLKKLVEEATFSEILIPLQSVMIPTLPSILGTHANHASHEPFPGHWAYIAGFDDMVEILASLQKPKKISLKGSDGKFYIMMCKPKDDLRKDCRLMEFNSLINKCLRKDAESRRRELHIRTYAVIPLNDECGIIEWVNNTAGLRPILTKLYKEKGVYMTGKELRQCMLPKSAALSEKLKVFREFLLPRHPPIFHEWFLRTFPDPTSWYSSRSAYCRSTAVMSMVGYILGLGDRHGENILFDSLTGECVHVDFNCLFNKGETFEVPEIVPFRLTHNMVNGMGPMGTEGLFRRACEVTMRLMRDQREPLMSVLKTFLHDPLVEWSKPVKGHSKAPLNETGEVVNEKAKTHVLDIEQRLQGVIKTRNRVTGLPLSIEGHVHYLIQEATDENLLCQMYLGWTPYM
# Sequence (Q8WXE1 whole entry partner): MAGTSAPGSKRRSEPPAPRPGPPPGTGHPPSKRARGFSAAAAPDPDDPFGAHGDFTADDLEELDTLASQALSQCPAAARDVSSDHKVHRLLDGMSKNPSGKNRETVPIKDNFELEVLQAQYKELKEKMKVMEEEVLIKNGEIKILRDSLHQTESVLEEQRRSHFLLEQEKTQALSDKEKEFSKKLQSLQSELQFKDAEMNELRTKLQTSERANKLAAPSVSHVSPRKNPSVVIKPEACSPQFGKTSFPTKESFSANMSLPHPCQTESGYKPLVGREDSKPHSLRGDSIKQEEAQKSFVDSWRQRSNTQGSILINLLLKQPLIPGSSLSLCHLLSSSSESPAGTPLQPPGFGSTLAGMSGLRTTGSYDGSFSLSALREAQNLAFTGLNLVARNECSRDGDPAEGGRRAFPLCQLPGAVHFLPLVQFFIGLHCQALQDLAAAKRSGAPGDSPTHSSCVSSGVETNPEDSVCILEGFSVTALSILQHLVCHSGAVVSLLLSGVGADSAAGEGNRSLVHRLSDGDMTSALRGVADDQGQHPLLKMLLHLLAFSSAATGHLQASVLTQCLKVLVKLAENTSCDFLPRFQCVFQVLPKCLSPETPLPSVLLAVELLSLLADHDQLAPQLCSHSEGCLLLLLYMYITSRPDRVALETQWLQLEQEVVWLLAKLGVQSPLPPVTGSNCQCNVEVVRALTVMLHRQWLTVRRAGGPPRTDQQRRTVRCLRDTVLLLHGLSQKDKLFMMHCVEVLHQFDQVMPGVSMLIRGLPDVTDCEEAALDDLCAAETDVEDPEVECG
# test-method-notes: Cellular ATR inhibition assay (H2AX phosphorylation in hydroxyurea treated HT29 cells)
# experimental-parameters: 2 mM hydroxyurea, phosphorylated H2AX-positive nuclei
Recorded IC50 by entry
Report the figure in nM without appending any unit label.

Below are worked cases with known answers.
CC(C)S(=O)(=O)c1ccc(-c2cnc(N)c(-c3cc(-c4ccc(CN[C@H]5CCOC5)cc4)no3)n2)cc1 [P-110 (S), reference compound]; 46
CC(C)S(=O)(=O)c1ccc(-c2cnc(N)c(-c3cc(-c4ccc(CN[C@@H]5CCOC5)cc4)no3)n2)cc1 [P-110 (R), reference compound]; 54

// next item, IC50 requested
Ask: // returns reported IC50 for input `CC(C)S(=O)(=O)c1ccc(-c2cnc(N)c(-c3cc(-c4ccc(CNC5CCOCC5)cc4)no3)n2)cc1`
Result: 13

----------
# test-method-notes: Pharmacokinetics (noncompartmental, blood or plasma)
# experimental-parameters: in vivo; intravenous (IV) dosing
experimental-readout: half-life (h)
Report the figure in h without appending any unit label.

Ask: // returns reported half-life for input CC(C)S(=O)(=O)c1ccc(-c2cnc(N)c(-c3cc(-c4ccc(CN[C@@H]5CCOC5)cc4)no3)n2)cc1 [P-110 (R), reference compound]
Result: 2.7

Ask: Ok, now `CC(C)S(=O)(=O)c1ccc(-c2cnc(N)c(-c3cc(-c4ccc(CNC5CCOCC5)cc4)no3)n2)cc1`
Result: 4.7

----------
# test-method-notes: Pharmacokinetics (noncompartmental, blood or plasma)
# experimental-parameters: in vivo; intravenous (IV) dosing
experimental-readout: clearance (mL/min/kg)
Report the figure in mL/min/kg without appending any unit label.

CC(C)S(=O)(=O)c1ccc(-c2cnc(N)c(-c3cc(-c4ccc(CNC5CCOCC5)cc4)no3)n2)cc1; 7.1

// next item, clearance requested
Ask: // returns reported clearance for input CC(C)S(=O)(=O)c1ccc(-c2cnc(N)c(-c3cc(-c4ccc(CN[C@@H]5CCOC5)cc4)no3)n2)cc1 [P-110 (R), reference compound]
Result: 12.7

The measurements presented in this section are drawn from patent US8846686B2.
